Numbers sourced from BindingDB's records for doi:10.1016/0006-2952(86)90769-0.

# System under test: Muscarinic acetylcholine receptor M2 (Rattus norvegicus)
# Sequence (P10980 whole entry): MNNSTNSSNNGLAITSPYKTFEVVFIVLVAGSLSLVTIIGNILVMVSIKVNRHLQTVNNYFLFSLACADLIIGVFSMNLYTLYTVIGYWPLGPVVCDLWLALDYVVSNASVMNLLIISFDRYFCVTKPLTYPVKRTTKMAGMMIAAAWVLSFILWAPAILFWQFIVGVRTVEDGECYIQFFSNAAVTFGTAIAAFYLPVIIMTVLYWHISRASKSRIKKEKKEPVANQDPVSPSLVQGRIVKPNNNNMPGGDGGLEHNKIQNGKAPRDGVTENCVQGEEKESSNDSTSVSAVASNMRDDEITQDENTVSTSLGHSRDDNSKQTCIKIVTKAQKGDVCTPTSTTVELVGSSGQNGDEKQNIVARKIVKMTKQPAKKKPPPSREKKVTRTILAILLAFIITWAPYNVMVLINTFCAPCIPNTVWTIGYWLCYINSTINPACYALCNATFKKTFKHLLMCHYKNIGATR

Compound: COc1ccc(C(CN(C)C)C2(O)CCCCC2)cc1 (stereo unspecified)
Ki: > 10 µM
